# experiment: Solubility in aqueous media
# Format: physicochemical
# experimentalParameters: aqueous buffer, thermodynamic from solid; McIlvaine buffer pH 2.2; pH of the saturated solution 2.8
experimentalReadout: solubility

[
  {
    "testSmiles": "CC[C@@H]1C(=O)N(C)c2cnc(Nc3ccc(C(=O)N[C@H]4CC[C@H](N5CCN(CC6CC6)CC5)CC4)cc3OC)nc2N1C(C)C",
    "val": "> 10000 µg/mL"
  }
]

====

# experiment: Solubility in aqueous media
# Type: physicochemical
# experimentalParameters: Sörensen buffer, aqueous buffer, thermodynamic from solid; Sörensen pH 9.0; pH of the saturated solution 9.2
experimentalReadout: solubility

[
  {
    "testSmiles": "CC[C@@H]1C(=O)N(C)c2cnc(Nc3ccc(C(=O)N[C@H]4CC[C@H](N5CCN(CC6CC6)CC5)CC4)cc3OC)nc2N1C(C)C",
    "val": "3 µg/mL"
  }
]
